- procedure details: Maximum concentration in plasma was determined by oral administration to rats at 20 mg/kg
- Format: ADME, organism-based
- Parameters: dose 20 mg/kg, route oral
- condition set: rat
test readout: Cmax

[
  {
    "compound": "NC1CN(c2c(F)cc3c(=O)c(C(=O)O)cn([C@@H]4C[C@@H]4F)c3c2Cl)CC12CC2 (single isomer, unassigned) [SITAFLOXACIN ANHYDROUS]",
    "test readout": "Cmax",
    "recorded measurement": "2.6 µg/mL"
  },
  {
    "compound": "NC1CCN(c2c(F)cc3c(=O)c(C(=O)O)cn([C@@H]4C[C@@H]4F)c3c2Cl)C1 (single isomer, unassigned)",
    "test readout": "Cmax",
    "recorded measurement": "2 µg/mL"
  },
  {
    "compound": "N[C@H]1CN(c2c(F)cc3c(=O)c(C(=O)O)cn(C4CC4)c3c2Cl)CC12CC2",
    "test readout": "Cmax",
    "recorded measurement": "3.4 µg/mL"
  },
  {
    "compound": "N[C@@H]1CCN(c2c(F)cc3c(=O)c(C(=O)O)cn(C4CC4)c3c2Cl)C1",
    "test readout": "Cmax",
    "recorded measurement": "3.9 µg/mL"
  }
]

----------
- Tested on: Enterobacter cloacae
- procedure details: Minimum inhibitory concentration in vitro against Enterobacter cloacae (03400)
- Assay type: functional

[
  {
    "molecule": "N[C@H]1CN(c2c(F)cc3c(=O)c(C(=O)O)cn(C4CC4F)c3c2Cl)CC12CC2 (stereo in doubt; 39)",
    "readout units": "µg/mL",
    "MIC": 0.1
  },
  {
    "molecule": "N[C@@H]1CN(c2c(F)cc3c(=O)c(C(=O)O)cn(C4CC4F)c3c2Cl)CC12CC2 (stereo in doubt; 38)",
    "readout units": "µg/mL",
    "MIC": 0.2
  },
  {
    "molecule": "N[C@H]1CN(c2c(F)cc3c(=O)c(C(=O)O)cn(C4CC4F)c3c2Cl)CC12CC2 (stereo in doubt; 40)",
    "readout units": "µg/mL",
    "MIC": 0.78
  },
  {
    "molecule": "N[C@@H]1CN(c2c(F)cc3c(=O)c(C(=O)O)cn(C4CC4F)c3c2Cl)CC12CC2 (stereo in doubt; 37)",
    "readout units": "µg/mL",
    "MIC": 0.013
  }
]

----------
- Tested on: Enterococcus faecalis
- procedure details: Minimum inhibitory concentration in vitro against Streptococcus faecalis (ATCC 19433)
- Type: functional
- condition set: Enterococcus faecalis, ATCC 19433; read-out: MIC
So basically, if MIC comes in under 0.2 µg/mL it's MET, and if it's 0.2 µg/mL or more it's NOT MET.

[
  {
    "compound": "O=C(O)c1cn(C2CC2)c2cc(N3CCNCC3)c(F)cc2c1=O",
    "tested system": "Enterococcus faecalis",
    "class assignment": "NOT MET"
  },
  {
    "compound": "NC1CN(c2c(F)cc3c(=O)c(C(=O)O)cn([C@@H]4C[C@@H]4F)c3c2Cl)CC12CC2 (single isomer, unassigned) [SITAFLOXACIN ANHYDROUS]",
    "tested system": "Enterococcus faecalis",
    "class assignment": "MET"
  },
  {
    "compound": "N[C@@H]1CCN(c2c(F)cc3c(=O)c(C(=O)O)cn(C4CC4)c3c2Cl)C1",
    "tested system": "Enterococcus faecalis",
    "class assignment": "MET"
  },
  {
    "compound": "N[C@H]1CN(c2c(F)cc3c(=O)c(C(=O)O)cn(C4C[C@H]4F)c3c2Cl)CC12CC2 (single isomer, unassigned)",
    "tested system": "Enterococcus faecalis",
    "class assignment": "NOT MET"
  },
  {
    "compound": "N[C@@H]1CN(c2c(F)cc3c(=O)c(C(=O)O)cn(C4CC4)c3c2Cl)CC12CC2",
    "tested system": "Enterococcus faecalis",
    "class assignment": "NOT MET"
  },
  {
    "compound": "N[C@H]1CN(c2c(F)cc3c(=O)c(C(=O)O)cn(C4C[C@@H]4F)c3c2Cl)CC12CC2 (single isomer, unassigned)",
    "tested system": "Enterococcus faecalis",
    "class assignment": "NOT MET"
  },
  {
    "compound": "N[C@H]1CN(c2c(F)cc3c(=O)c(C(=O)O)cn(C4CC4F)c3c2Cl)CC12CC2 (stereo in doubt; 40)",
    "tested system": "Enterococcus faecalis",
    "class assignment": "NOT MET"
  },
  {
    "compound": "N[C@H]1CN(c2c(F)cc3c(=O)c(C(=O)O)cn(C4CC4)c3c2Cl)CC12CC2",
    "tested system": "Enterococcus faecalis",
    "class assignment": "MET"
  }
]

----------
- System: Staphylococcus epidermidis
- procedure details: Minimum inhibitory concentration in vitro against […] (56556)
- Format: functional

[
  {
    "compound": "N[C@H]1CN(c2c(F)cc3c(=O)c(C(=O)O)cn(C4CC4F)c3c2Cl)CC12CC2 (stereo in doubt; 40)",
    "tested system": "Staphylococcus epidermidis",
    "MIC (µg/mL)": 3.13
  },
  {
    "compound": "N[C@@H]1CN(c2c(F)cc3c(=O)c(C(=O)O)cn(C4CC4F)c3c2Cl)CC12CC2 (stereo in doubt; 38)",
    "tested system": "Staphylococcus epidermidis",
    "MIC (µg/mL)": 0.78
  },
  {
    "compound": "N[C@@H]1CN(c2c(F)cc3c(=O)c(C(=O)O)cn(C4CC4F)c3c2Cl)CC12CC2 (stereo in doubt; 37)",
    "tested system": "Staphylococcus epidermidis",
    "MIC (µg/mL)": 0.1
  },
  {
    "compound": "N[C@H]1CN(c2c(F)cc3c(=O)c(C(=O)O)cn(C4CC4F)c3c2Cl)CC12CC2 (stereo in doubt; 39)",
    "tested system": "Staphylococcus epidermidis",
    "MIC (µg/mL)": 0.78
  }
]

----------
- procedure details: Urinary recovery at 20 mg/kg was determined by oral administration to rats in unchanged form of compound
- Assay type: ADME, organism-based
- Design: dose 20 mg/kg, route oral
- condition set: rat, urine, read-out: Urinary recovery

[
  {
    "molecule": "NC1CCN(c2c(F)cc3c(=O)c(C(=O)O)cn([C@@H]4C[C@@H]4F)c3c2Cl)C1 (single isomer, unassigned)",
    "dose excreted, %": 12
  }
]

----------
- System: Escherichia coli
- procedure details: Minimum inhibitory concentration in vitro against Escherichia coli (NIHJ)
- Assay type: functional
MIC values, listed per item

[
  {
    "molecule": "N[C@H]1CN(c2c(F)cc3c(=O)c(C(=O)O)cn(C4CC4F)c3c2Cl)CC12CC2 (stereo in doubt; 39)",
    "MIC": "0.05 µg/mL"
  },
  {
    "molecule": "N[C@H]1CN(c2c(F)cc3c(=O)c(C(=O)O)cn(C4CC4F)c3c2Cl)CC12CC2 (stereo in doubt; 40)",
    "MIC": "0.39 µg/mL"
  },
  {
    "molecule": "N[C@@H]1CN(c2c(F)cc3c(=O)c(C(=O)O)cn(C4CC4F)c3c2Cl)CC12CC2 (stereo in doubt; 38)",
    "MIC": "0.05 µg/mL"
  },
  {
    "molecule": "N[C@@H]1CN(c2c(F)cc3c(=O)c(C(=O)O)cn(C4CC4F)c3c2Cl)CC12CC2 (stereo in doubt; 37)",
    "MIC": "0.006 µg/mL"
  }
]

----------
- Tested on: Enterococcus faecalis
- procedure details: Minimum inhibitory concentration in vitro against Streptococcus faecalis (ATCC 19433)
- Format: functional
- condition set: Enterococcus faecalis, ATCC 19433; read-out: MIC
MIC values, listed per item

[
  {
    "compound": "N[C@@H]1CN(c2c(F)cc3c(=O)c(C(=O)O)cn(C4C[C@H]4F)c3c2Cl)CC12CC2 (single isomer, unassigned)",
    "MIC [µg/mL]": 0.2
  },
  {
    "compound": "NC1CCN(c2c(F)cc3c(=O)c(C(=O)O)cn([C@@H]4C[C@@H]4F)c3c2Cl)C1 (single isomer, unassigned)",
    "MIC [µg/mL]": 0.2
  },
  {
    "compound": "N[C@H]1CCN(c2c(F)cc3c(=O)c(C(=O)O)cn([C@H]4C[C@H]4F)c3c2Cl)C1",
    "MIC [µg/mL]": 0.2
  }
]
